# Test system: KURAMOCHI;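 also: growth inhibition of KURAMOCHI cells, read out with a cell viability assay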
# measurementProtocol: cells
# Type: functional, cell-based, Homo sapiens
# experimentalSetup: kuramochi
# Description: SANGER: Inhibition of human KURAMOCHI cell growth in a cell viability assay.
pIC50: −log10 of the molar value. Where a SMILES comes first, the peptide text is derived from it. The star is where a group is joined. Cbz = O=C(OCc1ccccc1)*
metric: pIC50

Q: Any idea what its pIC50 is? The compound is CC(C)C[C@@H](C=O)NC(=O)[C@H](CC(C)C)NC(=O)[C@H](CC(C)C)NC(=O)OCc1ccccc1 [MG-132] (Cbz-Leu-Leu-Leu-aldehyde)
Ans: < 6.00

###

Exercise: for every item that follows, state its recorded pIC50.
# System: ARH-77;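 also: growth inhibition of ARH-77 cells, read out by a cell viability assay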
# measurementProtocol: cells
# Assay type: functional, cell-based, Homo sapiens
# experimentalSetup: Homo sapiens, ARH-77
# Description: SANGER: Inhibition of human ARH-77 cell growth in a cell viability assay.
pIC50: −log10 of the molar value.

# compoundStructure, pIC50
measured = [
    ("Cc1ccc(C(=O)Nc2ccc(CN3CCN(C)CC3)c(C(F)(F)F)c2)cc1C#Cc1cnc2cccnn12", "< 6.29"),
    ("COc1ccc(-c2cc3nccn3c(Nc3ncccc3C(N)=O)n2)cc1OC", 5.51),
    ("NC(=O)c1cccc(-c2cc(Nc3ccc(OC(F)(F)F)cc3)ncn2)c1", "< 5.89"),
    ("O=S(=O)(O)c1ccc2cc(/N=N/c3cc(S(=O)(=O)O)c4cccnc4c3O)ccc2c1", "< 4.80"),
    ("COC(=O)[C@H](CCSC)NC(=O)c1ccc(NC[C@@H](N)CS)cc1-c1ccccc1", "< 5.99"),
]

# return pIC50 for each item in the list
1. Nc1ccccc1NC(=O)c1ccc(CNC(=O)OCc2cccnc2)cc1
2. OC[C@H](Cc1ccccc1)Nc1nc(Oc2ccc3c(c2)CCC3)nc2c1ncn2Cc1ccc(-c2ccccc2)cc1

Ans:
1: 6.42; 2: < 4.99

Q: Observed pIC50 on ARH-77 for COc1cc(N2CCC(N3CCN(C)CC3)CC2)ccc1Nc1ncc(Cl)c(Nc2ccccc2S(=O)(=O)C(C)C)n1 , please.
Ans: < 5.70

Ref: ChEMBL document CHEMBL1201861
